# credit: patent US10266609B2

# System: Anti-β-1,6-Glucan IgG antibodies (affinity purified from IVIG, Baxter)
# test-summary: ELISA: binding of oligosaccharides to anti-β-1,6-glucan antibodies; note: key: a plus (+) sign indicates that the glucan was active in the assay; a minus (−) sign indicates that the glucan was not active; the '+/−' symbol indicates inconclusive results
# setup-conditions: plate coated with oligosaccharide in PBS; 40 ug/mL anti-Beta 1,6 Glucan IgG; anti-human IgG-HRP, TMB, absorbance at 620 nm
endpoint: ELISA assay data: glucan active in detection of anti-beta glucan IgG

# compound, recorded-measurement
measured = [
    ("COC1O[C@H](CO[C@@H]2O[C@H](CO[C@@H]3O[C@H](CO)[C@@H](O)[C@H](O)[C@H]3O)[C@@H](O)[C@H](O)[C@H]2O)[C@@H](O)[C@H](O)[C@H]1O (some centres unmarked)", "+"),
    ("OC[C@H]1O[C@@H](OC[C@H]2O[C@@H](OC[C@H]3O[C@@H](OC[C@H]4O[C@@H](OC[C@H]5O[C@@H](OC[C@H]6O[C@@H](OC[C@H]7OC(OCCCl)[C@H](O)[C@@H](O)[C@@H]7O)[C@H](O)[C@@H](O)[C@@H]6O)[C@H](O)[C@@H](O)[C@@H]5O)[C@H](O)[C@@H](O)[C@@H]4O)[C@H](O)[C@@H](O)[C@@H]3O)[C@H](O)[C@@H](O)[C@@H]2O)[C@H](O)[C@@H](O)[C@@H]1O (some centres unmarked)", "+"),
]
